Biological target: α1 adrenergic receptor
Assay: [3H]prazosin binding, rat cerebral cortex preparation
Conditions: 0.25 nM [3H]prazosin, 60 min at 22° C.
Protocol: At the end of 60 min, the assay was terminated by vacuum filtration and the amount of radioactivity deposited on the filter measured by scintillation counting.
Counter-ions that a name gives are not always drawn.
property.measured: pKi
Please express pKi as -log10 of the molar concentration.

So the reported pKi for Cc1ccc([C@]23CNC[C@H]2C3)cc1 (racemic) [Bicifadine HCl] , on α1 adrenergic receptor, turned out to be 6.00

Where these numbers come from: patent US20060100263A1
